Measured EC50 values are reported for all entries that follow.
Tested on: HIV-1 mutant K103N
Assay: Inhibition of viral proliferation on culture cells (MT-4, MTT), K103N mutant
Format: cell-based
Details: Human immunodeficiency virus 1, read-out: K100N

{"compound": "CCc1c(Cc2c(Cl)cccc2Cl)nc(SCC=Cc2ccc(OC)cc2)[nH]c1=O [Compound 26e]", "EC50": "> 190 nM"}
{"compound": "Cc1c(C(C)c2c(F)cccc2F)nc(SCC=Cc2ccc(C#N)cc2)[nH]c1=O (centres unmarked) [Compound 26o]", "EC50": "> 59100 nM"}
{"compound": "CCc1c(C(C)c2c(F)cccc2F)nc(SCC=Cc2ccc([N+](=O)[O-])cc2)[nH]c1=O (centres unmarked) [Compound 26q]", "EC50": "> 5750 nM"}
{"compound": "COc1ccc(/C=C/CSc2nc(Cc3c(Cl)cccc3Cl)c(C)c(=O)[nH]2)cc1 [Compound 26a]", "EC50": "> 960 nM"}
{"compound": "COc1ccc(C=CCSc2nc(C(C)c3c(Cl)cccc3Cl)c(C)c(=O)[nH]2)cc1 (centres unmarked) [Compound 26g]", "EC50": "2470 nM"}
